Sourced from patent US20240424127A1

Molecular target: T1, IL-7 receptor (IL-7Rα/γc heterodimer) on primary human T cells (human, UniProt P16871 21-459; P31785 23-369)
T1 sequence (looked up) 1: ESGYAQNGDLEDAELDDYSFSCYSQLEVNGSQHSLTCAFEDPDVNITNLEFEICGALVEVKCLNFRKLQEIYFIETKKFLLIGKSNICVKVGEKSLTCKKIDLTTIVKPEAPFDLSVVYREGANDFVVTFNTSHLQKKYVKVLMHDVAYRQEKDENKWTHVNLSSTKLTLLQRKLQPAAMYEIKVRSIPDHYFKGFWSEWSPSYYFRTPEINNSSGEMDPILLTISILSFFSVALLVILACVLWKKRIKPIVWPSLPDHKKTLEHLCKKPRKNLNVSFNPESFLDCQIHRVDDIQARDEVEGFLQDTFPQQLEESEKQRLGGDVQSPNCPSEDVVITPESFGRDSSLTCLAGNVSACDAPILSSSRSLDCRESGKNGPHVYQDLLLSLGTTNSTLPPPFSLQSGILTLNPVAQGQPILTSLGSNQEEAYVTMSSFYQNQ
T1 sequence (looked up) 2: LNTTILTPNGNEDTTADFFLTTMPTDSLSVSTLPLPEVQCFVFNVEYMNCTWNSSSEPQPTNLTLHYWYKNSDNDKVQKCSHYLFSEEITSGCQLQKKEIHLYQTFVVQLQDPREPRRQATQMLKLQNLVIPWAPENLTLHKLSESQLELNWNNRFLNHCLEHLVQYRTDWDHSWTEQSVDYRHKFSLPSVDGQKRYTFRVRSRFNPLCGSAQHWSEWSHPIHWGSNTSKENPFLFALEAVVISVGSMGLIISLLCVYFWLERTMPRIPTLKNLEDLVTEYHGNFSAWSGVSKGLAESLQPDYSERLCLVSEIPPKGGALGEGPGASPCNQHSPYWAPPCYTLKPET
Experiment: cell-based or functional assay
Bridges are numbered along the chain shown (N, C = ends). [ ]: non-standard residue; d: D form. glutaryl‑PEG9‑azide = glutaryl-PEG9-azide group on the N-terminal amine; hSer = N[C@@H](CCO)C(=O)O; Nle = CCCC[C@H](N)C(=O)O
endpoint: EC50 pSTAT5, CD4 Treg (pM)
One number for each entry, in pM.

{"columns": ["binder", "value.reported"],
 "data": [
  ["CMP-114, CMP-108 conjugated to 30 kDa DBCO PEG at the N-terminus (ligand, disulfide 34-129, 47-141, 2-92; not fully specified (N-terminus); also: N-terminal azide conjugated to 30 kDa DBCO-PEG) DCDIEGKDGKQYESVL[Nle]VSIDQLLDS[Nle]KEIGSNCL[hSer]NEFNFFKRHICDANKEG[Nle]FLFRAARKLRQFLK[Nle]NSTGDF[hSer]LHLLKVSEGTTILLNCTGQVKGRKPAALGEAQPTKSL[hSer]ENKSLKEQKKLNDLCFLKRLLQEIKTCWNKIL[Nle]GTKEH-NH2", 10]
]}

Exercise: Respond only with EC50 pSTAT5, CD4 Treg recorded for CMP-108, synthetic IL-7 of SEQ ID NO: 3 with glutaryl-PEG9-azide at the N-terminus (ligand, disulfide 34-129, 47-141, 2-92, The suffix is not explained; also called synthetic IL-7, WT with an N-terminal conjugation handle) {glutaryl‑PEG9‑azide}-DCDIEGKDGKQYESVL[Nle]VSIDQLLDS[Nle]KEIGSNCL[hSer]NEFNFFKRHICDANKEG[Nle]FLFRAARKLRQFLK[Nle]NSTGDF[hSer]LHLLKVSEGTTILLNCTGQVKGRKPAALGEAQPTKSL[hSer]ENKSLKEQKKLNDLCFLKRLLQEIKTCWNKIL[Nle]GTKEH-NH2
Key: 20
